Tested on: 485176-168-R4-J1-PDC spheroids with HUVEC/MSC, viability
Assay remarks: Anticancer human tumor 485176-168-R4-J1-PDC patient-derived pancreatic adenocarcinoma cell line growth inhibition [GQUAD]
Run conditions: curve of first compound; second compound 0.1 µM
Property label: log10 of IC50 (log10 of the value in nM)

{"columns": ["Compound", "log10 of IC50"],
 "data": [
  ["CC1COCCN1c1cc(C2(S(C)(=N)=O)CC2)nc(-c2ccnc3[nH]ccc23)n1 (stereo unspecified) + Cc1cnc(CNC(=O)c2c(=O)c3ccc(N4CCCN(C)CC4)nc3n3c2sc2ccccc23)cn1", 3.00],
  ["O=c1[nH]cc(F)c(=O)[nH]1 + Cc1[nH]c2ccc(F)cc2c1-c1nc2c3cccnc3c3ncccc3c2[nH]1", 2.99],
  ["Nc1ccn(C2OC(CO)C(O)C2(F)F)c(=O)n1 (stereo unspecified) + Cc1[nH]c2ccc(F)cc2c1-c1nc2c3cccnc3c3ncccc3c2[nH]1", 1.60],
  ["CC1COCCN1c1cc(C2(S(C)(=N)=O)CC2)nc(-c2ccnc3[nH]ccc23)n1 (stereo unspecified) + CN(C)c1ccc(Nc2c3ccc(NC(=O)CCN4CCCC4)cc3nc3cc(NC(=O)CCN4CCCC4)ccc23)cc1", 3.27],
  ["COc1cc(C2c3cc4c(cc3C(OC3OC5COC(C)OC5C(O)C3O)C3COC(=O)C23)OCO4)cc(OC)c1O (stereo unspecified) + Cc1[nH]c2ccc(F)cc2c1-c1nc2c3cccnc3c3ncccc3c2[nH]1", 2.42],
  ["Cc1[nH]c2ccccc2c1CCNCc1ccc(/C=C/C(=O)NO)cc1 + Cc1[nH]c2ccc(F)cc2c1-c1nc2c3cccnc3c3ncccc3c2[nH]1", 2.21],
  ["CCc1c2c(nc3ccc(O)cc13)-c1cc3c(c(=O)n1C2)COC(=O)[C@]3(O)CC + Cc1cnc(CNC(=O)c2c(=O)c3ccc(N4CCCN(C)CC4)nc3n3c2sc2ccccc23)cn1", 0.18],
  ["C=CCn1c(=O)c2cnc(Nc3ccc(N4CCN(C)CC4)cc3)nc2n1-c1cccc(C(C)(C)O)n1 + Cc1[nH]c2ccc(F)cc2c1-c1nc2c3cccnc3c3ncccc3c2[nH]1", 2.59],
  ["O=c1[nH]cc(F)c(=O)[nH]1 + CN(C)c1ccc(Nc2c3ccc(NC(=O)CCN4CCCC4)cc3nc3cc(NC(=O)CCN4CCCC4)ccc23)cc1", 3.42],
  ["CCc1c2c(nc3ccc(O)cc13)-c1cc3c(c(=O)n1C2)COC(=O)[C@]3(O)CC + Cc1[nH]c2ccc(F)cc2c1-c1nc2c3cccnc3c3ncccc3c2[nH]1", 0.75],
  ["CC1COCCN1c1cc(C2(O)CC3CCC(C2)O3)c2cnn(-c3ccn[nH]3)c2n1 (stereo unspecified) + CN(C)c1ccc(Nc2c3ccc(NC(=O)CCN4CCCC4)cc3nc3cc(NC(=O)CCN4CCCC4)ccc23)cc1", 2.08]
]}

---

System: 485176-168-R4-J1-PDC spheroids with HUVEC/MSC, viability
Assay remarks: Anticancer human tumor 485176-168-R4-J1-PDC cell line growth inhibition [GQUAD]; active = viability on the fitted dose curve at most 10% of control; inactive = the rest;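 note: spheroids exposed to compounds for seven days before readout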
Run conditions: second compound 10 µM; first compound 3.16 µM
Possible outcomes: active, inactive

{"columns": ["Molecule", "Assigned class"],
 "data": [
  ["COc1ncnc(C2CC2)c1-c1ncc2cnn(Cc3ccc(-c4nc(C(F)(F)F)cn4C(C)C)cc3)c2n1 + CN(C)c1ccc(Nc2c3ccc(NC(=O)CCN4CCCC4)cc3nc3cc(NC(=O)CCN4CCCC4)ccc23)cc1", "inactive"],
  ["CC1COCCN1c1cc(C2(O)CC3CCC(C2)O3)c2cnn(-c3ccn[nH]3)c2n1 (stereo not given) + Cc1[nH]c2ccc(F)cc2c1-c1nc2c3cccnc3c3ncccc3c2[nH]1", "inactive"],
  ["O=C(c1cc(Cc2n[nH]c(=O)c3ccccc23)ccc1F)N1CCN(C(=O)C2CC2)CC1 + Cc1cnc(CNC(=O)c2c(=O)c3ccc(N4CCCN(C)CC4)nc3n3c2sc2ccccc23)cn1", "inactive"],
  ["COc1cc(C2c3cc4c(cc3C(OC3OC5COC(C)OC5C(O)C3O)C3COC(=O)C23)OCO4)cc(OC)c1O (stereo not given) + Cc1cnc(CNC(=O)c2c(=O)c3ccc(N4CCCN(C)CC4)nc3n3c2sc2ccccc23)cn1", "inactive"],
  ["CCCS(=O)(=O)Nc1ccc(F)c(C(=O)c2c[nH]c3ncc(-c4ccc(Cl)cc4)cc23)c1F + Cc1cnc(CNC(=O)c2c(=O)c3ccc(N4CCCN(C)CC4)nc3n3c2sc2ccccc23)cn1", "inactive"],
  ["C#Cc1c(F)ccc2cc(O)cc(-c3ncc4c(N5CC6CCC(C5)N6)nc(OCC56CCCN5CC(F)C6)nc4c3F)c12 (stereo not given) + Cc1cnc(CNC(=O)c2c(=O)c3ccc(N4CCCN(C)CC4)nc3n3c2sc2ccccc23)cn1", "inactive"],
  ["COc1cc(C2c3cc4c(cc3C(OC3OC5COC(C)OC5C(O)C3O)C3COC(=O)C23)OCO4)cc(OC)c1O (stereo not given) + CN(C)c1ccc(Nc2c3ccc(NC(=O)CCN4CCCC4)cc3nc3cc(NC(=O)CCN4CCCC4)ccc23)cc1", "inactive"],
  ["C=CC(=O)N1CCN(c2nc(=O)n(-c3c(C)ccnc3C(C)C)c3nc(-c4c(O)cccc4F)c(F)cc23)C(C)C1 (stereo not given) + Cc1[nH]c2ccc(F)cc2c1-c1nc2c3cccnc3c3ncccc3c2[nH]1", "inactive"],
  ["CC1COCCN1c1cc(-c2ccnn2C)c2ccnc(-c3ccn[nH]3)c2n1 (stereo not given) + Cc1cnc(CNC(=O)c2c(=O)c3ccc(N4CCCN(C)CC4)nc3n3c2sc2ccccc23)cn1", "active"],
  ["O=C(NO)c1cnc(N2CCN(S(=O)(=O)c3ccc4ccccc4c3)CC2)nc1 + CN(C)c1ccc(Nc2c3ccc(NC(=O)CCN4CCCC4)cc3nc3cc(NC(=O)CCN4CCCC4)ccc23)cc1", "active"]
]}

---

Tested on: 485176-168-R4-J1-PDC spheroids with HUVEC/MSC, viability
Assay remarks: Anticancer human tumor 485176-168-R4-J1-PDC cell line growth inhibition [GQUAD]; active = viability on the fitted dose curve at most 10% of control; inactive = the rest;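 note: spheroids exposed to compounds for seven days before readout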
Run conditions: second compound 3.16 µM; first compound 1 µM
Possible outcomes: active, inactive

{"columns": ["Compound", "Assigned class"],
 "data": [
  ["O=c1[nH]cc(F)c(=O)[nH]1 + Cc1cnc(CNC(=O)c2c(=O)c3ccc(N4CCCN(C)CC4)nc3n3c2sc2ccccc23)cn1", "inactive"],
  ["COc1cc(C2c3cc4c(cc3C(OC3OC5COC(C)OC5C(O)C3O)C3COC(=O)C23)OCO4)cc(OC)c1O (stereo not given) + CN(C)c1ccc(Nc2c3ccc(NC(=O)CCN4CCCC4)cc3nc3cc(NC(=O)CCN4CCCC4)ccc23)cc1", "inactive"],
  ["Cc1cccc(N(C)C(=O)C2C(O)CCN2c2nc(C)cc(C(F)(F)F)c2C#N)c1 (stereo not given) + CN(C)c1ccc(Nc2c3ccc(NC(=O)CCN4CCCC4)cc3nc3cc(NC(=O)CCN4CCCC4)ccc23)cc1", "inactive"],
  ["CC1COCCN1c1cc(-c2ccnn2C)c2ccnc(-c3ccn[nH]3)c2n1 (stereo not given) + Cc1cnc(CNC(=O)c2c(=O)c3ccc(N4CCCN(C)CC4)nc3n3c2sc2ccccc23)cn1", "active"],
  ["COc1ccc([C@@H](O)c2cc(-c3ncnc4cc(N5CCOCC5)ccc34)c(F)cc2Cl)nn1 + Cc1[nH]c2ccc(F)cc2c1-c1nc2c3cccnc3c3ncccc3c2[nH]1", "inactive"],
  ["C=CCn1c(=O)c2cnc(Nc3ccc(N4CCN(C)CC4)cc3)nc2n1-c1cccc(C(C)(C)O)n1 + CN(C)c1ccc(Nc2c3ccc(NC(=O)CCN4CCCC4)cc3nc3cc(NC(=O)CCN4CCCC4)ccc23)cc1", "inactive"],
  ["COc1ncnc(C2CC2)c1-c1ncc2cnn(Cc3ccc(-c4nc(C(F)(F)F)cn4C(C)C)cc3)c2n1 + Cc1cnc(CNC(=O)c2c(=O)c3ccc(N4CCCN(C)CC4)nc3n3c2sc2ccccc23)cn1", "inactive"],
  ["CC(=O)O[C@H]1C(=O)[C@@]2(C)[C@H]([C@H](OC(=O)c3ccccc3)[C@]3(O)C[C@H](OC(=O)[C@H](O)[C@@H](NC(=O)c4ccccc4)c4ccccc4)C(C)=C1C3(C)C)[C@]1(OC(C)=O)CO[C@@H]1C[C@@H]2O + Cc1cnc(CNC(=O)c2c(=O)c3ccc(N4CCCN(C)CC4)nc3n3c2sc2ccccc23)cn1", "inactive"],
  ["C#Cc1c(F)ccc2cc(O)cc(-c3ncc4c(N5CC6CCC(C5)N6)nc(OCC56CCCN5CC(F)C6)nc4c3F)c12 (stereo not given) + CN(C)c1ccc(Nc2c3ccc(NC(=O)CCN4CCCC4)cc3nc3cc(NC(=O)CCN4CCCC4)ccc23)cc1", "inactive"],
  ["COc1ncnc(C2CC2)c1-c1ncc2cnn(Cc3ccc(-c4nc(C(F)(F)F)cn4C(C)C)cc3)c2n1 + CN(C)c1ccc(Nc2c3ccc(NC(=O)CCN4CCCC4)cc3nc3cc(NC(=O)CCN4CCCC4)ccc23)cc1", "inactive"],
  ["CC1COCCN1c1cc(C2(S(C)(=N)=O)CC2)nc(-c2ccnc3[nH]ccc23)n1 (stereo not given) + Cc1cnc(CNC(=O)c2c(=O)c3ccc(N4CCCN(C)CC4)nc3n3c2sc2ccccc23)cn1", "inactive"],
  ["C=CC(=O)N1CCN(c2nc(=O)n(-c3c(C)ccnc3C(C)C)c3nc(-c4c(O)cccc4F)c(F)cc23)C(C)C1 (stereo not given) + Cc1cnc(CNC(=O)c2c(=O)c3ccc(N4CCCN(C)CC4)nc3n3c2sc2ccccc23)cn1", "inactive"],
  ["O=C(c1cc(Cc2n[nH]c(=O)c3ccccc23)ccc1F)N1CCN(C(=O)C2CC2)CC1 + Cc1cnc(CNC(=O)c2c(=O)c3ccc(N4CCCN(C)CC4)nc3n3c2sc2ccccc23)cn1", "inactive"],
  ["CC(C)(O)C1CCC(Nc2ccc3ncc(-c4cccc(C(F)(F)F)c4)n3n2)CC1 (stereo not given) + Cc1[nH]c2ccc(F)cc2c1-c1nc2c3cccnc3c3ncccc3c2[nH]1", "inactive"],
  ["COc1ccc([C@@H](O)c2cc(-c3ncnc4cc(N5CCOCC5)ccc34)c(F)cc2Cl)nn1 + CN(C)c1ccc(Nc2c3ccc(NC(=O)CCN4CCCC4)cc3nc3cc(NC(=O)CCN4CCCC4)ccc23)cc1", "inactive"],
  ["Cc1cccc(N(C)C(=O)C2C(O)CCN2c2nc(C)cc(C(F)(F)F)c2C#N)c1 (stereo not given) + Cc1[nH]c2ccc(F)cc2c1-c1nc2c3cccnc3c3ncccc3c2[nH]1", "inactive"],
  ["O=C(NO)c1cnc(N2CCN(S(=O)(=O)c3ccc4ccccc4c3)CC2)nc1 + Cc1cnc(CNC(=O)c2c(=O)c3ccc(N4CCCN(C)CC4)nc3n3c2sc2ccccc23)cn1", "active"],
  ["COc1ccc([C@@H](O)c2cc(-c3ncnc4cc(N5CCOCC5)ccc34)c(F)cc2Cl)nn1 + Cc1cnc(CNC(=O)c2c(=O)c3ccc(N4CCCN(C)CC4)nc3n3c2sc2ccccc23)cn1", "inactive"],
  ["COc1ncnc(C2CC2)c1-c1ncc2cnn(Cc3ccc(-c4nc(C(F)(F)F)cn4C(C)C)cc3)c2n1 + Cc1[nH]c2ccc(F)cc2c1-c1nc2c3cccnc3c3ncccc3c2[nH]1", "inactive"],
  ["COc1cccc2c1C(=O)c1c(O)c3c(c(O)c1C2=O)CC(O)(C(=O)CO)CC3OC1CC(N)C(O)C(C)O1 (stereo not given) + Cc1[nH]c2ccc(F)cc2c1-c1nc2c3cccnc3c3ncccc3c2[nH]1", "inactive"]
]}
